Origin of values: the Immune Epitope Database (IEDB)

Target: HLA-A*33:01
Experiment: IEDB peptide-MHC binding, purified MHC/competitive/radioactivity; filed as Kd, often an IC50 or EC50 that approximates it; bounds were set here for any values at or beyond the usual limits of such assays
Conditions: source organism: Vaccinia virus WR
Threshold 2 µM. Kd below it: Y. Kd at it or above: N.

Qu. is_below(Kd, 2 µM) for RSKMLKRGSR ?
Ans. Y

Qu. is_below(Kd, 2 µM) for VTIKYSNDNR ?
Ans. N

Qu. State whether 2 µM exceeds Kd recorded for QLEDSEYLFR .
Ans. Y

Qu. # check: Kd < 2 µM for RLVEEFFNR
Ans. Y

Qu. is_below(Kd, 2 µM) for SSVQLSNNK ?
Ans. N

Qu. hey, is Kd for YVTLNASQY lower than 2 µM or not?
Ans. N

Qu. Does this sequence meet the criterion Kd < 2 µM? ELGELIGVNY
Ans. N

Qu. Please let me know if NLLVQYGAK shows Kd below 2 µM.
Ans. N

Qu. Item MAVEVGSIR : Kd beneath 2 µM, strictly?
Ans. Y

Qu. Record ISGIGTFLHY : is its Kd strictly below 2 µM?
Ans. N

Qu. Say whether its Kd is strictly beneath 2 µM. Entry: NISFKSINK
Ans. N

Qu. Lab note: Kd threshold 2 µM. Does this sequence come in strictly under it? SVQLSNNKY
Ans. N

Qu. Would you kindly verify if Kd of TLVVISVIFY is strictly less than 2 µM?
Ans. N

Qu. Does the reported Kd of IMNLEMIDER stay below 2 µM?
Ans. Y

Qu. Lab log: compare recorded Kd with 2 µM; is it strictly lower for RVYEALYYV ?
Ans. N

Qu. Strictly below 2 µM in Kd? TVLPHLCLDY
Ans. N

Qu. Hello, is Kd of the following sequence strictly smaller than 2 µM? QVKDNIISR
Ans. Y

Qu. Strictly below 2 µM: is that where Kd of NFLRSIAMLK sits?
Ans. Y

Qu. Problem: For the sequence LLSCIRNASK , is Kd under 2 µM?
Ans. N

Qu. Would you kindly verify if Kd of KSSSIDVDK is strictly less than 2 µM?
Ans. N

Qu. Kd under 2 µM? Item: AQYKCVTIK
Ans. N

Qu. Kd under 2 µM? Item: LFMEMFFDY
Ans. N

Qu. Just wondering, is Kd of KSISKSNAK below 2 µM?
Ans. N

Qu. Regarding YVPSAEDNY , kindly confirm whether its Kd is beneath 2 µM.
Ans. N

Qu. Problem: For the sequence NFITKEIKNR , is Kd under 2 µM?
Ans. Y

Qu. Determine if SMASLKSLY shows Kd strictly lower than 2 µM.
Ans. N

Qu. Say whether its Kd is strictly beneath 2 µM. Entry: EFIRIIRPDY
Ans. Y

Qu. Consider EQNLTDTNFK . Does its Kd lie strictly below 2 µM?
Ans. N

Qu. Identify whether the sequence TTDDLVKSY records Kd below 2 µM.
Ans. N

Qu. Please indicate whether the reported Kd of AMENLKAMLY is strictly below 2 µM.
Ans. N

Qu. Say whether its Kd is strictly beneath 2 µM. Entry: KIAPGIADIR
Ans. N

Qu. Quick check: does LFYPSMFTLR have Kd under 2 µM?
Ans. Y

Qu. Please state whether Kd is below 2 µM for GAVVKSDNK
Ans. N

Qu. Field: below-cutoff. Rule: recorded Kd strictly less than 2 µM. Subject: LTPIFSDLLK
Ans. N

Qu. Check if Kd falls below 2 µM for LLPSTDVNK .
Ans. N

Qu. Could you please tell me whether Kd recorded for IITVGMLIY is less than 2 µM?
Ans. Y

Qu. Criterion: Kd strictly below 2 µM. Is it met by AFNDDGIYIR ?
Ans. N
